measured target: Protein cereblon/Tyrosine-protein kinase BTK (Homo sapiens, UniProt Q06187+Q96SW2)
Sequence (Q06187 2-659 limits assumed): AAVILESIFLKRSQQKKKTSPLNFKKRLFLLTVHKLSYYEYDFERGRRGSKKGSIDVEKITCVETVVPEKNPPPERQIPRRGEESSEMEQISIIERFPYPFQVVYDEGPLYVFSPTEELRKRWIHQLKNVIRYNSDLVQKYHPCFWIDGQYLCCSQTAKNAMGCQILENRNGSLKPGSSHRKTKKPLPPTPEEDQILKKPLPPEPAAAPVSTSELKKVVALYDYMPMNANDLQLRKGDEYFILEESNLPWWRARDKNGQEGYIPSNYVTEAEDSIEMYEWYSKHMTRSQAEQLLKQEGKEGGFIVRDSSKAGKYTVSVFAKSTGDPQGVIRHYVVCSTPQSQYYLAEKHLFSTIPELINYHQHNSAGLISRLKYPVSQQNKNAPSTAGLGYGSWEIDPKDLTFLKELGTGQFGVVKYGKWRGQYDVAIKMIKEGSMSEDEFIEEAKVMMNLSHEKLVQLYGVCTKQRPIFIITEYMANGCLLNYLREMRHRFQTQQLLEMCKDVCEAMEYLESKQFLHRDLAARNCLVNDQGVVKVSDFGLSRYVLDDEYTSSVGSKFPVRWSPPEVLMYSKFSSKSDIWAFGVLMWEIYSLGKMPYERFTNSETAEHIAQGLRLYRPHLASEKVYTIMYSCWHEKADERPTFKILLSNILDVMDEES
Sequence (Q96SW2 whole entry partner): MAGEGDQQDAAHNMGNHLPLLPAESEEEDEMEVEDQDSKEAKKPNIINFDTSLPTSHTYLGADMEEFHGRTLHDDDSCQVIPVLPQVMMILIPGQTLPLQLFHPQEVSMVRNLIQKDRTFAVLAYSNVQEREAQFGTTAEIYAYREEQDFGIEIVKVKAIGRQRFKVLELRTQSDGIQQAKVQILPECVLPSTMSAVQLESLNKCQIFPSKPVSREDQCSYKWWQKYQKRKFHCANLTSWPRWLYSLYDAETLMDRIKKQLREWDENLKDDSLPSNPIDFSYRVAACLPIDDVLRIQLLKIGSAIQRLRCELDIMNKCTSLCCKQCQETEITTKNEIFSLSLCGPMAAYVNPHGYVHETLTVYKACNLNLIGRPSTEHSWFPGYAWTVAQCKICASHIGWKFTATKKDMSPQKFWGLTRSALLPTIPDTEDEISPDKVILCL
assay summary: PROTAC activity at BTK/CRBN in human MINO cells assessed as BTK protein degradation by measuring onset time activity at 20 nM by Western blotting analysis
Type: cell-based
result type: TIME

These solved cases illustrate the format of a correct answer.
TIME recorded for this compound, Cc1cc(-c2nc(Nc3cnn(C4CN(CC5CCN(c6ccc7c(c6)C(=O)N(C6CCC(=O)NC6=O)C7=O)CC5)C4)c3)ncc2F)ccc1CNC(=O)c1cn(C(C)(C)C)nn1 (centres undefined) , is < 0.5 h

TIME recorded for this compound, NC(=O)c1ncc(N2CCCCC2)nc1Nc1ccc(C2CCN(C[C@@H]3CCN(c4ccc5c(c4)C(=O)N(C4CCC(=O)NC4=O)C5=O)C3)CC2)cc1 (some centres undefined) , is < 1 h

TIME recorded for this compound, Nc1ncnc2c1c(-c1ccc(Oc3ccccc3)cc1)nn2C1CCN(C(=O)CN2CCN(CC3CN(c4ccc5c(c4)C(=O)N(C4CCC(=O)NC4=O)C5=O)C3)CC2)CC1 (centres undefined) , is < 1 h

Now for the compound whose TIME we want.
TIME recorded for this compound, Cc1cc(-c2nc(Nc3cnn(C4CCN(CC5CCN(c6ccc7c(c6)C(=O)N(C6CCC(=O)NC6=O)C7=O)CC5)CC4)c3)ncc2F)ccc1CNC(=O)c1cn(C(C)(C)C)nn1 (centres undefined) , is < 0.5 h
